Test system: HL-60(TB) leukemia
ASSAY NOTES: NCI-60 one-dose screen, 48 h
MEASUREMENT SETUP: 10 µM unless noted
Procedure: Growth inhibition of the HL-60(TB) human tumor cell line is measured as a screen for anti-cancer activity. Cells are grown in 96 well plates and exposed to the test compound for 48 hours. Compounds are tested at a single concentration, which is 10^-5 M for most compounds. The reported endpoint is percent growth (GI% or GIPRCNT), where numbers from 0 - 100% represent growth inhibition, and numbers from -100% - 0 represent cell death. For example, a value of 40 represents 60% growth inhibition. […]
Compounds without any hit were thinned out: in the full panel of roughly 83,000, 20% have a hit. Calls of active or inactive are those of the source. Rule for the calls: active = growth percent below 10; inactive = the rest.
Return exactly one item of active, inactive

See these solved cases before continuing.
# COMPOUND, LABEL VALUE
rows = [
    ("O=c1c2sc3ccccc3c2nnn1-c1ccc(F)c(Cl)c1", "inactive"),
    ("CN(C)c1ccc(Nc2cc(-c3cccc(OC(F)(F)F)c3)nc3ccc(N4CCCC4)cc23)cc1", "active"),
    ("C[N+](C)=c1ccc2nc3c(cc(Nc4ccccc4)c4ccccc43)oc-2c1", "inactive"),
    ("COC(=O)/C=C/c1cc(OC(C)=O)c2c(c1)[C@@H](C(=O)OC)[C@H](c1ccc(OC(C)=O)c(OC(C)=O)c1)O2", "active"),
    ("CCCCCCCOc1cccc(/C=C2\\N=C3SCCCN3C2=O)c1", "inactive"),
    ("CCCCCCCCCCCCNC(=O)[C@H]1CSC(c2ccsc2)N1 (stereo not given in full)", "active"),
]

Tell me the recorded outcome of this test for "COc1cc(C(=O)n2nc(-c3cc(OC)c(OC)c(OC)c3)nc2N)cc(OC)c1OC" .
inactive

Tell me the recorded outcome of this test for "COc1ccc(-c2cc(-c3cc(OC)ccc3OC)[nH]c(=O)c2C#N)cc1" .
inactive

Tell me the recorded outcome of this test for "Cc1ccc(C)c2c1C(=O)OC2=O" .
inactive

Tell me the recorded outcome of this test for "O=C(NNC(=O)c1ccc(-n2cc(-c3ccccc3)nn2)cc1)Nc1ccccc1" .
inactive
